- experimentalSystem: human neutrophil elastase (Homo sapiens (Human))
- Sequence (P08246 30-247): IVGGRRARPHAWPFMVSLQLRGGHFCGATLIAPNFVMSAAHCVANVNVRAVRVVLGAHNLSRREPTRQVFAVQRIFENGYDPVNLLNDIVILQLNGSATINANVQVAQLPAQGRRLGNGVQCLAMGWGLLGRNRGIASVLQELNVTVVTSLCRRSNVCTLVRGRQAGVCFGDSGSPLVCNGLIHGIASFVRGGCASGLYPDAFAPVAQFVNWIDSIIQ
- assayInfo: Elastase inhibition assay, purified human neutrophil elastase
- Assay type: biochemical
- condition: purified HNE; read-out: IC50
- Experimental: Serially diluted compounds in DMSO were dispensed into a 384-well black opaque plate by Echo dispenser. […] Slope of fluorescence intensity vs. time representing the Vmax of enzyme activity was calculated with MARS software. % relative inhibition was calculated as: […] IC50 was calculated based on the % relative inhibition curve using log(agonist) vs. response (three parameters) method with Prism software. […]
The following compounds are listed with their measured IC50 values.
Field: numeric (nM). Do not append units.

| compound | endpointLabel | readingUnit | readoutNumber |
| --- | --- | --- | --- |
| Cc1c(-c2ccnn2-c2ccc(C#N)cc2)cc(C(=O)NCC(O)CNC(=O)c2cc(-c3ccnn3-c3ccc(C#N)cc3)c(C)n(-c3cccc(C(F)(F)F)c3)c2=O)c(=O)n1-c1cccc(C(F)(F)F)c1 [Compound 58] | IC50 | nM | 0.011 |

QUERY: // IC50 lookup, key: CC(C)[C@H](NC(=O)[C@@H]1CCCN1C(=O)[C@@H](NC(=O)c1ccc(C(=O)NS(=O)(=O)c2ccc(Cl)cc2)cc1)C(C)C)B(O)O [Compound 51]
RESULT: 0.03

QUERY: // IC50 lookup, key: CC(C)[C@H](NC(=O)[C@@H]1CCCN1C(=O)[C@@H](NC(=O)c1ccc(C(=O)NCC(=O)O)cc1)C(C)C)B(O)O [Compound 52]
RESULT: 0.015

Reference source for all entries: patent US12415819B2
